Reference source: PubChem BioAssay

Test system: Wnt5a (protein binding on small-molecule microarray)
Assay: Wnt5a binders on small-molecule microarray, primary screen, biophysical, 635/667 nm fluorescence (AID 1142);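 further: fluorescence read at 667 nm with signal to noise per printed feature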
Conditions: 635 nm fluorescence, higher = more signal
Measured Quantity: composite z-score

N#Cc1ccc(NN2C(C(O)c3cccs3)C=CC3C(=O)N(c4ccccc4)C(=O)C32)cc1 (stereo not drawn); 0.128
[N-]=[N+]=NCc1ccccc1C[C@@]1(C(=O)N2CCOCC2)N=C(c2ccc(OCCCO)cc2)O[C@@H]1c1ccccc1CN=[N+]=[N-]; 1.44
Cc1cc(C)c(C(O)C2C=CC3C(=O)N(c4ccccc4)C(=O)C3N2Nc2ccc(C#N)cc2)c(C)c1 (stereo not drawn); 0.461
CC(C)NC(=O)[C@@]1(Cc2ccccc2I)c2ccccc2C(=O)N(Cc2ccccc2)[C@H]1c1ccc(CO)cc1; 0.107
Cc1ccc(S[C@]2(C(=O)O)CC(=O)N(C3Cc4ccccc4C3)[C@@H]2c2ccc(CO)cc2I)cc1; -0.227

Answer with the recorded composite z-score of O=C1OCCC=C[C@H]2OC34C=CCN(Cc5ccccc5)C(=O)[C@H]3N(CCCCCO)C(=O)[C@@H]4C12 (stereo partly drawn) only. -0.733

Determine its reported composite z-score: CCN(CC)c1ccc(N2CC=CC34O[C@@H]5/C=C\CCCOC(=O)C5[C@H]3C(=O)N(C(CO)C(C)C)[C@@H]4C2=O)cc1 (stereo partly drawn) -0.297

Entry "COc1c(C)cc(-c2cc3c(c(-c4ccc(Oc5ccccc5)cc4)n2)[Si](C(C)C)(C(C)C)OC3)cc1C" needs its composite z-score filled in; supply it. 0.285
